Exercise: state measured bioavailability for each of the compounds provided.
Procedure details: Oral bioavailability in rat at 3 mg/kg
Type: ADME, organism-based
Setup conditions: in vivo

Example entries begin here.
Cl.NC(=O)[C@@H]1CC[C@H](c2ccc(OCc3ccccc3F)cc2)N1 [RAXATRIGINE HYDROCHLORIDE] :: 43%
N#Cc1ccccc1COc1ccc([C@H]2CC[C@@H](C(N)=O)N2)cc1 :: 39%
NC(=O)[C@@H]1CC[C@H](c2ccc(OCc3ccc(F)cc3)cc2)N1 :: 31%

Kindly review the next compound as well.
For the compound NC(=O)[C@@H]1CC[C@H](c2ccc(Oc3ccccc3)cc2)N1 , what bioavailability is on record?
25%

====

Provide the reported pIC50 of each item.
Experimental target: Sodium channel protein type 3 subunit alpha (Homo sapiens)
Sequence (Q9NY46 whole entry): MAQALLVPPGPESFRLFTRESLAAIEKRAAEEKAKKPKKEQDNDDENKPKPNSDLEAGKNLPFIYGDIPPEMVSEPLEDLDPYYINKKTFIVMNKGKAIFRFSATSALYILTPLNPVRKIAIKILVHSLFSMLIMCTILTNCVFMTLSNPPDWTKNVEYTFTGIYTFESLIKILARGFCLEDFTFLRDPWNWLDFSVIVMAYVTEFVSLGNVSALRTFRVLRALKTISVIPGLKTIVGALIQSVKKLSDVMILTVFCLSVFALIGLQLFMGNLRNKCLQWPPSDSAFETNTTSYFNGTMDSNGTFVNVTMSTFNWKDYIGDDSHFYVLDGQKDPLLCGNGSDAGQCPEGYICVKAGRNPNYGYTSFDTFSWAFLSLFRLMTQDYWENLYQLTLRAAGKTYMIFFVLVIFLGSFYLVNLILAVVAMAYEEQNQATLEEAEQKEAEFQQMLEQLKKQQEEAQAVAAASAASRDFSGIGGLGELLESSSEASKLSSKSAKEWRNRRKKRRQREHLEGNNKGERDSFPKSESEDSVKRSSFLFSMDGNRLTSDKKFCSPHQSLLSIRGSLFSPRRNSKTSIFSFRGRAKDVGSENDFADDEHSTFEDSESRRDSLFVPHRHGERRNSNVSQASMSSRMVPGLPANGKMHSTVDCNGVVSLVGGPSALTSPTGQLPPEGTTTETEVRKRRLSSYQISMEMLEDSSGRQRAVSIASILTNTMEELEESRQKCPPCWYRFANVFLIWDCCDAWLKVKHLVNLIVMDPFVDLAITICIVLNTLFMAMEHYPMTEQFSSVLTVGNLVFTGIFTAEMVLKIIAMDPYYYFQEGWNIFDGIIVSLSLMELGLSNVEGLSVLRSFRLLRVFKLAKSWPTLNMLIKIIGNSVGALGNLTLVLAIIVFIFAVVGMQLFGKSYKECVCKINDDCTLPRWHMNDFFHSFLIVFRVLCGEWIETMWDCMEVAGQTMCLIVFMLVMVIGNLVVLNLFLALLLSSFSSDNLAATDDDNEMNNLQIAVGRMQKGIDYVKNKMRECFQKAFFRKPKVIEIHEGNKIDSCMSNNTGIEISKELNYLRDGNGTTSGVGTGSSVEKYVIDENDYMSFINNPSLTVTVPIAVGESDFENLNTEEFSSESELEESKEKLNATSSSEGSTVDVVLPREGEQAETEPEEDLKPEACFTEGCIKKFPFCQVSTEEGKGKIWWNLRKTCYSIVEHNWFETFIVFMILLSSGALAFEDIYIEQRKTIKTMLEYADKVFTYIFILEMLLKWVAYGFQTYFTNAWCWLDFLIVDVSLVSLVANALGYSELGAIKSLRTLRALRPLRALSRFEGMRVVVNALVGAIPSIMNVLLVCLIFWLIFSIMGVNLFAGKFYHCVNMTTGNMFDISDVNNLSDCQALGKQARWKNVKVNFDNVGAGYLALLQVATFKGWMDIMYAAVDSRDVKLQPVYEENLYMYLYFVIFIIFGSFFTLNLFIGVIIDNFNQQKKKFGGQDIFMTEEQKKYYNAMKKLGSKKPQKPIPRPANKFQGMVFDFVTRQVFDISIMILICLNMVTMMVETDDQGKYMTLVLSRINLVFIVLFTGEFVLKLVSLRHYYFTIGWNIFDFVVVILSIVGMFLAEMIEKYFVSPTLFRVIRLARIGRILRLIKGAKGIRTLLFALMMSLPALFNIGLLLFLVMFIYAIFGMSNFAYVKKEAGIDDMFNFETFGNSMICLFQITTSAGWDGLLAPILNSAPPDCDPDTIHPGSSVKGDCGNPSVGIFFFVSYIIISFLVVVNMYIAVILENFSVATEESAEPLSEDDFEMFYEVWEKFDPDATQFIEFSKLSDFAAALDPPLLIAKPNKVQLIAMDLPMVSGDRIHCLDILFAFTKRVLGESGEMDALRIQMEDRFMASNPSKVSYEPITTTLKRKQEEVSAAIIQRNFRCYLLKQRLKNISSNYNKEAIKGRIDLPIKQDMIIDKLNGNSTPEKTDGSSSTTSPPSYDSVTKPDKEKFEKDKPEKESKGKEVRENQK
Procedure details: Inhibition of Nav1.3 (unknown origin) expressed in HEK293 cells assessed as inhibition of sodium current incubated for 3 to 3.5 mins by electrophysiology assay
Answers are plain numbers, as −log10 of the molar value.

Past entries and their recorded results:
C[C@@H](Oc1ccc([C@H]2CC[C@@H](C(N)=O)N2)cc1)c1ccccc1 :: 4.50
NC(=O)[C@H]1CCC[C@@H](c2ccc(OCc3cccc(F)c3)cc2)N1 (stereo in doubt) :: 4.40
NC(=O)[C@@H]1CC[C@H](c2ccc(Oc3cccc(F)c3)cc2)N1 :: 4.00

// for each compound below, give its pIC50
1. NC(=O)CNCc1ccc(OCc2ccccc2F)cc1
2. Cl.NC(=O)[C@@H]1CC[C@H](c2ccc(OCc3ccccc3F)cc2)N1 [RAXATRIGINE HYDROCHLORIDE]
3. NC(=O)[C@H]1CC[C@@H](c2ccc(OCc3ccccc3F)cc2)N1

4.30
4.20
4.20

Batch request: pIC50 for each of the following compounds.
1. C[C@@H](C(N)=O)N1CCCC1c1ccc(OCc2ccccc2F)cc1 (some centres not stated)
2. C[C@@H](C(N)=O)N1CCCC1c1ccc(OCc2ccccc2F)cc1 (single isomer, unassigned; isomer 2)
3. NC(=O)[C@@H]1CC[C@H](c2ccc(Oc3ccccc3)cc2)N1
4. C[C@H](NC1CCCc2cc(OCc3ccccc3F)ccc21)C(N)=O (some centres not stated)
5. NC(=O)[C@@H]1CC[C@@H](c2ccc(OCc3ccccc3F)cc2)N1
6. O=C1NCCC1NCc1ccc(OCc2ccccc2F)cc1 (configuration not stated)
7. NC(=O)[C@@H]1CCC[C@H](c2ccc(OCc3cccc(F)c3)cc2)N1 (stereo in doubt)
8. NC(=O)[C@@H]1CC[C@H](c2ccc(OCc3ccccc3F)cn2)N1

1. 4.30
2. 4.40
3. 4.00
4. 4.20
5. 4.00
6. 3.90
7. 4.40
8. 4.20

Each compound below has a recorded value; state its pIC50.
1. COc1cc([C@H]2CC[C@@H](C(N)=O)N2)ccc1OCc1ccccc1F
2. NC(=O)[C@@H]1CCCN1Cc1ccc(OCc2ccccc2F)cc1
3. NC(=O)C1Cc2cc(OCc3ccccc3F)ccc2CN1 (configuration not stated)
4. NC(=O)CNC1CCc2cc(OCc3ccccc3F)ccc21 (configuration not stated)

1. 4.20
2. 4.10
3. 4.70
4. 4.50

====

Experimental target: Cytochrome P450 2B6 (Homo sapiens)
Sequence (P20813 whole entry): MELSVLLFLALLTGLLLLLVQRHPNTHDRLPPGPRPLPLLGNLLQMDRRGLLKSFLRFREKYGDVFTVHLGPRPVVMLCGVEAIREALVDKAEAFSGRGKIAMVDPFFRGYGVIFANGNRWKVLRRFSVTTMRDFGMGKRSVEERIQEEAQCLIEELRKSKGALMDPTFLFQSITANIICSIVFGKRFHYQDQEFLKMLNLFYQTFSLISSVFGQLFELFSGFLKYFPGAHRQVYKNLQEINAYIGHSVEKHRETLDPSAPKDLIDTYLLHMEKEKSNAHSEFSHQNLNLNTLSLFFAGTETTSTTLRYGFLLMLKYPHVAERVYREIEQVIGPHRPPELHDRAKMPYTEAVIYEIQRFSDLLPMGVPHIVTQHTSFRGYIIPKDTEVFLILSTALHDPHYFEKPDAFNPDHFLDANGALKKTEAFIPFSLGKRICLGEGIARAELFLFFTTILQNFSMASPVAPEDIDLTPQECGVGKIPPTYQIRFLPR
Measure: pIC50
One number for each entry, as −log10 of the molar value.

Would you kindly share the measured pIC50 for Cl.NC(=O)[C@@H]1CC[C@H](c2ccc(OCc3ccccc3F)cc2)N1 [RAXATRIGINE HYDROCHLORIDE] ?
4.51

Recorded values, source ChEMBL document CHEMBL4622996.
